Each item that follows carries a reported SOLUBILITY OF PESTICIDE ACTIVES IN di-n-propylcarbonate (DNPC) SOLVENT.
- protocol_details: solubility of pesticide actives in dialkyl carbonate solvents (CIPAC method MT181)
- Type: physicochemical
- measurement_conditions: di-n-propylcarbonate (DNPC) solvent, 20 deg C.
- Excerpt: All solubility measurements are done according to the CIPAC method MT181.

Consider the worked cases shown below.
Task: State the recorded SOLUBILITY OF PESTICIDE ACTIVES IN di-n-propylcarbonate (DNPC) SOLVENT for this entry: CCC(CC)Nc1c([N+](=O)[O-])cc(C)c(C)c1[N+](=O)[O-] [Pendimethalin]
Output: >300 grams/litre

Task: State the recorded SOLUBILITY OF PESTICIDE ACTIVES IN di-n-propylcarbonate (DNPC) SOLVENT for this entry: CCCN(CCC)c1c([N+](=O)[O-])cc(C(F)(F)F)cc1[N+](=O)[O-] [Trifluralin]
Output: >600 grams/litre

Task: State the recorded SOLUBILITY OF PESTICIDE ACTIVES IN di-n-propylcarbonate (DNPC) SOLVENT for this entry: CCNc1nc(NC(C)C)nc(SC)n1 [Ametryn]
Output: >250 grams/litre

Could you now look at the following molecule, please?
Task: State the recorded SOLUBILITY OF PESTICIDE ACTIVES IN di-n-propylcarbonate (DNPC) SOLVENT for this entry: CC(C)(C)C(O)(CCc1ccc(Cl)cc1)Cn1cncn1 (stereo not shown) [Tebuconazole]
Output: >100 grams/litre
